FYI, the data here is from patent EP0324390A2.

# System: Strept. faecium (D)
# method.notes: Agar dilution test according to Lorian (antibacterial activity)
# Type: cell-based
# study.conditions: Müller Hinton Agar, 16 to 18 h at 37 C; lowest concentration fully preventing growth
# MIC per entry

Known MIC results, listed for orientation:
compound="COC1CC(CC2CCC(C)C(C(C)C(=O)O)O2)OC2(OC(C)(C3CCC(C)(C4OC(C5OC(O)(COC(=O)Nc6ccccc6)C(C)CC5C)CC4C)O3)CC2C)C1C (centres unmarked)" subject_of_test="Strept. faecium (D)" quantity_name=MIC recorded_value="1,56 µg/ml"
compound="COC1CC(CC2CCC(C)C(C(C)C(=O)O)O2)OC2(OC(C)(C3CCC(C)(C4OC(C5OC(O)(COC(=O)NCc6ccccc6)C(C)CC5C)CC4C)O3)CC2C)C1C (centres unmarked)" subject_of_test="Strept. faecium (D)" quantity_name=MIC recorded_value="12,5 µg/ml"

For the compound COC1CC(CC2CCC(C)C(C(C)C(=O)O)O2)OC2(OC(C)(C3CCC(C)(C4OC(C5OC(O)(COC(=O)COc6ccccc6)C(C)CC5C)CC4C)O3)CC2C)C1C (centres unmarked) , report MIC.
0,781 µg/ml

Given COC1CC(CC2CCC(C)C(C(C)C(=O)O)O2)OC2(OC(C)(C3CCC(C)(C4OC(C5OC(O)(COC(=O)CCOc6ccccc6)C(C)CC5C)CC4C)O3)CC2C)C1C (centres unmarked) , respond with its MIC.
1,56 µg/ml

Item COC1CC(CC2CCC(C)C(C(C)C(=O)O)O2)OC2(OC(C)(C3CCC(C)(C4OC(C5OC(O)(COC(=O)c6ccco6)C(C)CC5C)CC4C)O3)CC2C)C1C (centres unmarked) : provide MIC
0,391 µg/ml
